All values here come from patent US5726316A.

Target: nicotinic receptors (L-[3H]nicotine binding, rat brain membrane preparations)
Conditions: calculated from IC50 (Cheng et al.)
Metric: pKi
Answers are plain numbers, as −log10 of the molar value.

Form: item CNCCCCc1cccnc1 [Sample No. 7, N-methyl-(3-pyridinyl)-buane-1-amine] ; test system nicotinic receptors (L-[3H]nicotine binding, rat brain membrane preparations); pKi: 6.04
